Values were extracted from patent US10988485B2.

# Experimental system: GDP-bound KRAS protein (aa 1-169), containing both G12C and C118A amino acid substitutions (Homo sapiens, UniProt P01116, C118A/G12C)
# Sequence (P01116 1-169 isoform P01116-2 G12C/C118A): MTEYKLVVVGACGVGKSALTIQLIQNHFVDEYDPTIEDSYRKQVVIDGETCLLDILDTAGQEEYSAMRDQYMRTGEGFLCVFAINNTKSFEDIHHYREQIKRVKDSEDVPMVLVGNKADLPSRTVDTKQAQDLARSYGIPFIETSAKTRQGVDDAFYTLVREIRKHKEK
# Test name: Coupled Nucleotide Exchange Assay (SOS-mediated nucleotide exchange, AlphaScreen)
# Assay type: biochemical
# Condition summary: compound pre-incubation either 5 min or 2 hours (not stated per compound); SOS and GTP added, cRAF AlphaScreen read-out
Provide the recorded IC50 for the entries that follow.
Answers are plain numbers, in nM.

Some entries whose results are on file:
C=CC(=O)N1C[C@H](C)N(C2=NS(=O)(=O)N(c3c(C)cnn3C(C)C)c3nc(-c4ccccc4F)c(Cl)cc32)C[C@H]1C (single isomer, unassigned) [Example 1-11-2]    150
C=CC(=O)N1C[C@H](C)N(C2=NS(=O)(=O)N(c3c(C)cnn3C(C)C)c3nc(-c4ccccc4F)c(Cl)cc32)C[C@H]1C [Example 1-11]    200
C=CC(=O)N1C[C@H](C)N(C2=NS(=O)(=O)N(c3scnc3C(C)C)c3nc(-c4c(O)cccc4F)c(Cl)cc32)C[C@H]1C [Example 1-5]    100
C=CC(=O)N1C[C@H](C)N(C2=NS(=O)(=O)N(c3c(C)cc(CN(C)C)cc3C(C)C)c3nc(-c4c(N)cccc4F)c(Cl)cc32)C[C@H]1C [Example 8]    190

Give IC50 for all compounds that follow.
1. C=CC(=O)N1C[C@H](C)N(C2=NS(=O)(=O)N(c3c(C)ccnc3C(C)C)c3nc(-c4ccccc4C)c(Cl)cc32)C[C@H]1C (single isomer, unassigned) [Example 1-12-2]
2. C=CC(=O)N1C[C@H](C)N(C2=NS(=O)(=O)N(c3ccccc3C(C)(C)C)c3nc(-c4ccccc4S(C)(=O)=O)c(Cl)cc32)C[C@H]1C (atropisomer, axis not shown) [Example 1-10-1]
3. C=CC(=O)N1C[C@H](C)N(C2=NS(=O)(=O)N(c3c(C)cc(N)nc3C(C)C)c3nc(-c4ccccc4F)c(Cl)cc32)C[C@H]1C (atropisomer, axis not shown) [Example 10-1]
4. C=CC(=O)N1C[C@H](C)N(C2=NS(=O)(=O)Nc3nc(-c4ccccc4F)c(Cl)cc32)C[C@H]1C [Example 7]
5. C=CC(=O)N1C[C@H](C)N(C2=NS(=O)(=O)N(c3c(C)ccnc3C(C)C)c3nc(-c4ccccc4C)c(Cl)cc32)C[C@H]1C (single isomer, unassigned) [Example 1-12-1]
6. C=CC(=O)N1C[C@H](C)N(C2=NS(=O)(=O)N(c3c(N)ncnc3C(C)C)c3nc(-c4ccccc4F)c(Cl)cc32)C[C@H]1C [Example 9]

Result:
1: 3550; 2: 80; 3: 3500; 4: 16400; 5: 220; 6: 250

Give IC50 for all compounds that follow.
1. C=CC(=O)N1C[C@H](C)N(C2=NS(=O)(=O)N(c3ccccc3C(C)C)c3nc(-c4ccccc4F)c(Cl)cc32)C[C@H]1C [Example 2-3]
2. C=CC(=O)N1C[C@H](C)N(C2=NS(=O)(=O)N(c3ccccc3C(C)C)c3nc(-c4c(O)cccc4F)c(Cl)cc32)C[C@H]1C [Example 1-4]
3. C=CC(=O)N1C[C@H](C)N(C2=NS(=O)(=O)N(c3c(C)cnn3C(C)C)c3nc(-c4ccccc4F)c(Cl)cc32)C[C@H]1C (single isomer, unassigned) [Example 1-11-1]
4. C=CC(=O)N1C[C@H](C)N(C2=NS(=O)(=O)N(c3ccccc3C(C)(C)C)c3nc(-c4ccccc4S(C)(=O)=O)c(Cl)cc32)C[C@H]1C [Example 1-10]
5. C=CC(=O)N1C[C@H](C)N(C2=NS(=O)(=O)N(c3c(N)ncnc3C(C)C)c3nc(-c4ccccc4F)c(Cl)cc32)C[C@H]1C (single isomer, unassigned) [Example 9-2]
6. C=CC(=O)N1C[C@H](C)N(C2=NS(=O)(=O)N(c3c(C)cc(N)nc3C(C)C)c3nc(-c4ccccc4F)c(Cl)cc32)C[C@H]1C (atropisomer, axis not shown) [Example 10-2]
7. C=CC(=O)N1CCN(C2=NS(=O)(=O)N(c3ccccc3C(C)C)c3nc(-c4c(N)cccc4F)c(Cl)cc32)[C@@H](C)C1 [Example 1-3]
8. C=CC(=O)N1C[C@H](C)N(C2=NS(=O)(=O)N(c3ccc(CN(C)C)cc3C(C)(C)C)c3nc(-c4ccccc4F)c(Cl)cc32)C[C@H]1C [Example 1-13-2]

Result:
1: 180; 2: 170; 3: 540; 4: 110; 5: 11200; 6: 390; 7: 60; 8: 3870

Give IC50 for all compounds that follow.
1. C=CC(=O)N1C[C@H](C)N(C2=NS(=O)(=O)N(c3ccccc3C(C)(C)C)c3nc(-c4c(N)cccc4F)c(Cl)cc32)C[C@H]1C (single isomer, unassigned) [Example 1-8-1]
2. C=CC(=O)N1C[C@H](C)N(C2=NS(=O)(=O)N(c3ccccc3C(C)(C)C)c3nc(-c4ccccc4F)c(Cl)cc32)C[C@H]1C [Example 1-1-1]
3. C=CC(=O)N1C[C@H](C)N(C2=NS(=O)(=O)N(c3ccccc3C(C)(C)C)c3nc(-c4ccccc4S(C)(=O)=O)c(Cl)cc32)C[C@H]1C (atropisomer, axis not shown) [Example 1-10-2]
4. C=CC(=O)N1CCN(C2=NS(=O)(=O)N(c3c(C)ccnc3C(C)C)c3nc(-c4ccccc4F)c(Cl)cc32)[C@@H](C)C1 [Example 2-2]

Result:
10
150
5950
530
